Origin of values: paper PMC10786919

experiment: Lactate dehydrogenase (LDH) release assay; assay type: cell-based; conditions: LDH: Cytotoxicity assay: EC50
Positions of bridges follow the written chain, without caps; N, C: chain ends. Non-standard residues stand in square brackets, D forms with d. Residues, ends and D or L forms follow the SMILES beside them. Lys(N3) = [N-]=[N+]=NCCCC[C@H](N)C(=O)O; R8 = C=CCCCCCC[C@@](C)(N)C(=O)O; Cba = N[C@@H](CC1CCC1)C(=O)O; S5 = C=CCCC[C@](C)(N)C(=O)O; βAla = NCCC(=O)O
parameter: EC50

Example cases with answers are listed next.
- compound: "CC(=O)N[C@@H](CCCCN=[N+]=[N-])C(=O)NCCC(=O)N[C@@H](CC(C)C)C(=O)N[C@H](C(=O)N[C@@H](Cc1ccccc1)C(=O)N[C@]1(C)CCCCCCC=CCCC[C@@](C)(C(=O)N[C@@H](CO)C(=O)N(C)[C@@H](C)C(=O)N[C@@H](C)C(N)=O)NC(=O)[C@H](CC2CCC2)NC(=O)[C@H](CCC(N)=O)NC(=O)[C@H](C)NC(=O)[C@H](Cc2c[nH]c3ccccc23)NC(=O)[C@H](Cc2ccc(O)cc2)NC(=O)[C@H](CCC(=O)O)NC1=O)[C@@H](C)O"
  EC50: "> 50.6 µM"
- compound: "CC(=O)N[C@H](C(=O)N[C@@H](CO)C(=O)NC(C)(Cc1ccccc1)C(=O)N[C@]1(C)CCCCCCC=CCCC[C@@](C)(C(N)=O)NC(=O)[C@H](CC(C)C)NC(=O)[C@H](CC(C)C)NC(=O)[C@H](C)NC(=O)[C@H](Cc2c[nH]c3ccccc23)NC(=O)[C@H](Cc2ccc(O)cc2)NC(=O)[C@H](CCC(=O)O)NC1=O)[C@@H](C)O (some centres unmarked)"
  EC50: "21.6 µM"
- compound: "CC(=O)N[C@@H](CCCCN=[N+]=[N-])C(=O)NCCC(=O)N[C@@H](CC(C)C)C(=O)N[C@@H](CCC(=O)O)C(=O)N[C@@H](Cc1ccccc1)C(=O)N[C@@]1(C)CCCCCCC=CCCC[C@@](C)(C(=O)N[C@@H](CO)C(=O)N[C@@H](C)C(=O)N[C@@H](C)C(N)=O)NC(=O)[C@H](CC2CCC2)NC(=O)[C@H](CCC(N)=O)NC(=O)[C@H](C)NC(=O)[C@H](Cc2c[nH]c3ccccc23)NC(=O)[C@H](Cc2ccc(O)cc2)NC(=O)[C@H](CCC(=O)O)NC1=O"
  EC50: "> 50.7 µM"
- compound: "CC(=O)N[C@@H](CCCCN=[N+]=[N-])C(=O)NCCC(=O)N[C@@H](CC(C)C)C(=O)N[C@H](C(=O)N[C@@H](Cc1ccccc1)C(=O)N[C@]1(C)CCCCCCC=CCCC[C@@](C)(C(=O)N[C@@H](CO)C(=O)N[C@@H](C)C(=O)N[C@@H](C)C(N)=O)NC(=O)[C@H](CC2CCC2)NC(=O)[C@@H](C)NC(=O)[C@H](C)NC(=O)[C@H](Cc2c[nH]c3ccccc23)NC(=O)[C@H](Cc2ccc(O)cc2)NC(=O)[C@H](CCC(=O)O)NC1=O)[C@@H](C)O [MP-474] (Ac-[Lys(N3)][βAla]LTF[R8]EYWA[dA][Cba][S5]SAA-NH2; staple 6-13)"
  EC50: "> 50 µM"

# context switch: different compound, same EC50
Prompt: Please give measured EC50 of the following entry: CC(=O)N[C@@H](CCCCN=[N+]=[N-])C(=O)NCCC(=O)N[C@@H](CC(C)C)C(=O)N[C@H](C(=O)N[C@@H](Cc1ccccc1)C(=O)N[C@]1(C)CCCCCCC=CCCC[C@@](C)(C(=O)N[C@@H](CO)C(=O)N[C@@H](C)C(=O)N[C@@H](C)C(N)=O)NC(=O)[C@H](CC2CCC2)NC(=O)CNC(=O)[C@H](C)NC(=O)[C@H](Cc2c[nH]c3ccccc23)NC(=O)[C@H](Cc2ccc(O)cc2)NC(=O)[C@H](CCC(=O)O)NC1=O)[C@@H](C)O [MP-262] (Ac-[Lys(N3)][βAla]LTF[R8]EYWAG[Cba][S5]SAA-NH2; staple 6-13)
Completion: > 50.6 µM
